- targetDesc: cGMP-dependent 3',5'-cyclic phosphodiesterase (Homo sapiens)
- testDescription: Inhibition of human recombinant PDE2A using cAMP as substrate at 1 uM after 30 mins by HTRF method
measurementName: inhibition (%)

Cn1cc(-c2ccc(Oc3nccnc3-c3cncnc3)cc2)c2nc3ccccc3cc21 :: 8.9
Cn1cc(-c2ccc(Oc3ncccc3-c3ccncc3)cc2)c2ncccc21 :: 16.6
Cc1cnc2c(-c3ccc(Oc4ncccc4-c4ccncc4)cc3)cn(C)c2c1 :: 24.9

(a) Cn1cc(-c2cccc(Oc3nccc(-c4cn[nH]c4)n3)c2)c2nc3ccccc3cc21
(b) Cn1cc(-c2ccc(Oc3nccnc3-c3ccncc3)cc2)c2ncccc21
// max by inhibition over [ a , b ] Select an item and report its label.
a

(I) Cn1cc(-c2cccc(Oc3nccc(-c4cncnc4)n3)c2)c2nc3ccccc3cc21
(II) Cn1cc(-c2ccc(Oc3nccnc3-c3ccncc3)cc2)c2nc3ccccc3cc21
I'd appreciate it if you could identify which of I and II has the greater inhibition. Indicate your choice by writing its label.
I
(I: 11.4%, II: 5.3%)

###

- testDescription: Metabolic stability in cynomolgus monkey liver microsomes incubated for 10 mins prior to NADPH addition measured after 60 mins by LC/MS/MS analysis
- Format: ADME, Macaca fascicularis
- conditions: read-out: Stability
measurementName: remaining at 1 h (%)

Below: 3 compounds and their reported remaining at 1 h.
Cn1cc(-c2ccc(Oc3nccnc3-c3ccncc3)cc2)c2nc3ccccc3cc21 :: 71
Cn1cc(-c2ccc(Oc3ncccc3-c3ccncc3)cc2)c2ncccc21 :: 39.8
Cn1cc(-c2ccc(Oc3nccnc3-c3ccncc3)cc2)c2ncc(Cl)cc21 :: 40.7

(I) Cn1cc(-c2cccc(Oc3nccc(-c4cn[nH]c4)n3)c2)c2nc3ccccc3cc21
(II) Cc1cnc2c(-c3ccc(Oc4ncccc4-c4ccncc4)cc3)cn(C)c2c1
(III) Cn1cc(-c2cccc(Oc3nccc(-c4cncnc4)n3)c2)c2nc3ccccc3cc21
(IV) Cn1cc(-c2ccc(Oc3ncccc3-c3ccncc3)cc2)c2ncc(Cl)cc21
Endpoint returns the given compounds ordered by ascending remaining at 1 h. Order the labels as requested and give them as your answer.
III, II, I, IV

###

- targetDesc: UniProt Q9HCR9
- Sequence (Q9HCR9 whole entry, looked up): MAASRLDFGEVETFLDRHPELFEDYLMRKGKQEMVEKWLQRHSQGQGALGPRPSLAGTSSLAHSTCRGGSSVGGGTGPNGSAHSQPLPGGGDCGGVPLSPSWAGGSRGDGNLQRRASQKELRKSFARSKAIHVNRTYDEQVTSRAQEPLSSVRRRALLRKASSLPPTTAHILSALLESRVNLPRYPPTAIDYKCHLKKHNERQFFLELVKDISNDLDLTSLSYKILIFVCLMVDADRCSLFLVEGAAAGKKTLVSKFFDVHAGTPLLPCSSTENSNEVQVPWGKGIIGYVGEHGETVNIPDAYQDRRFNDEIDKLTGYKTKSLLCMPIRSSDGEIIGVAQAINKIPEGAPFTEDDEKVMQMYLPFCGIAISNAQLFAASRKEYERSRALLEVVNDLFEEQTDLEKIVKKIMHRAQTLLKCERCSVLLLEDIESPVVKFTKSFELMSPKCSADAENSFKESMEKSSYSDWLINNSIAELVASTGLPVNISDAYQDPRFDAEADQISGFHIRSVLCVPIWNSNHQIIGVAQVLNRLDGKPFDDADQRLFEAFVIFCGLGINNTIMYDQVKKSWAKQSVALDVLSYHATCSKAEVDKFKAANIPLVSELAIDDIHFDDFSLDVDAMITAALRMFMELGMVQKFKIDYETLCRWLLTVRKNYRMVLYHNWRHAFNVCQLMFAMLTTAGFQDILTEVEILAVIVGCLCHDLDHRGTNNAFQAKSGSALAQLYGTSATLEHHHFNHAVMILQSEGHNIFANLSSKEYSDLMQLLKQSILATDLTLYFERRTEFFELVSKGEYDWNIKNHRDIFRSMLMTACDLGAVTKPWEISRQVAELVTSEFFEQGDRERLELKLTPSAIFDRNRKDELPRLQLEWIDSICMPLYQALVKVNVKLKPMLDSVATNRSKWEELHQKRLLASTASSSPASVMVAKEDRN
- testDescription: Inhibition of human recombinant PDE11A using [3H]-cAMP as substrate at 1 uM after 30 mins by two-step radiometric assay
measurementName: inhibition (%)

(P) Cn1cc(-c2cccc(Oc3nccc(-c4cncnc4)n3)c2)c2nc3ccccc3cc21
(Q) Cn1cc(-c2ccc(Oc3nccnc3-c3cncnc3)cc2)c2nc3ccccc3cc21
Of P and Q , which shows the smaller inhibition value? Output the label that corresponds to your choice.
Q
(Q: 3.3%, P: 24.4%)

(A) Cn1cc(-c2ccc(Oc3nccnc3-c3ccncc3)cc2)c2nc3ccccc3cc21
(B) Cn1cc(-c2ccc(Oc3ncccc3-c3ccncc3)cc2)c2ncc(Cl)cc21
(C) Cn1cc(-c2ccc(Oc3nccnc3-c3ccncc3)cc2)c2ncc(Cl)cc21
(D) Cc1cnc2c(-c3ccc(Oc4ncccc4-c4ccncc4)cc3)cn(C)c2c1
(E) Cn1cc(-c2cccc(Oc3nccc(N4CCOCC4)n3)c2)c2nc3ccccc3cc21
List the 5 entries from lowest inhibition to highest inhibition value. Please list each label once, in the requested order.
D, A, C, B, E

(A) Cn1cc(-c2ccc(Oc3ncccc3-c3ccncc3)cc2)c2ncccc21
(B) Cn1cc(-c2cccc(Oc3nccc(-c4cn[nH]c4)n3)c2)c2nc3ccccc3cc21
(C) Cn1cc(-c2ccc(Oc3nccnc3-c3ccncc3)cc2)c2ncccc21
Let's sort these by inhibition, smallest first. Go ahead? Write the labels, ordered according to the request.
A, C, B
(A: 3%, C: 4.9%, B: 27.3%)

###

- targetDesc: High affinity 3',5'-cyclic-AMP phosphodiesterase 7A (Homo sapiens)
- testDescription: Inhibition of human recombinant PDE7A using [3H]-cAMP as substrate at 1 uM after 30 mins by two-step radiometric assay
measurementName: inhibition (%)

Cn1cc(-c2ccc(Oc3nccnc3-c3ccncc3)cc2)c2ncc(Cl)cc21 :: 5.9

(A) Cn1cc(-c2ccc(Oc3nccnc3-c3cncnc3)cc2)c2nc3ccccc3cc21
(B) Cn1cc(-c2ccc(Oc3nccnc3-c3ccncc3)cc2)c2nc3ccccc3cc21
For the pair A and B , which member has the lower inhibition number? Response format: the label of the selected entry.
B
(B: 4%, A: 6%)

###

- targetDesc: 3',5'-cyclic-AMP phosphodiesterase 4D (Homo sapiens) (UniProt Q08499)
- Sequence (Q08499 whole entry): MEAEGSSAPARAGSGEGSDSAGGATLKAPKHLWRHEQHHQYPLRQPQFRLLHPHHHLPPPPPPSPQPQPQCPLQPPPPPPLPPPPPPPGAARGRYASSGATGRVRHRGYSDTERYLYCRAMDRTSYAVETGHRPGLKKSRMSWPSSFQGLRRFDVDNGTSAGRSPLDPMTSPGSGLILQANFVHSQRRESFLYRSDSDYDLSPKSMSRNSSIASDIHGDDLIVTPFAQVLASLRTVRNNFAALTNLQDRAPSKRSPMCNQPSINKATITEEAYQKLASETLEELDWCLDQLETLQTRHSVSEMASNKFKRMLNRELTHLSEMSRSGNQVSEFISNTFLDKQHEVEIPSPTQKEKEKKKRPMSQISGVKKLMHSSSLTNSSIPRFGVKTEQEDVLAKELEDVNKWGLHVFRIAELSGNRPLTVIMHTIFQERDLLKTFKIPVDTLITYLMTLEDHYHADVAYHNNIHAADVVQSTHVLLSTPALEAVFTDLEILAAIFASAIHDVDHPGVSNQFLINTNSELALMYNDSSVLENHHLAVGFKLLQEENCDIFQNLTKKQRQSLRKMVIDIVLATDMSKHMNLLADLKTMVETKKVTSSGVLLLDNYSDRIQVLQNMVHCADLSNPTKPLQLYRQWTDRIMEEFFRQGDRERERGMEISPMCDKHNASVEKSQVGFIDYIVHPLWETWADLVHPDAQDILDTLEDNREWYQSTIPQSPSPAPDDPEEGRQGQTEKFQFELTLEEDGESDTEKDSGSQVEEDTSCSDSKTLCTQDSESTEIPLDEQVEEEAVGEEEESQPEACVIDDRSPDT
- testDescription: Inhibition of human recombinant PDE4D using [3H]-cAMP as substrate at 10 uM after 30 mins by two-step radiometric assay
measurementName: inhibition (%)

Cc1cnc2c(-c3ccc(Oc4ncccc4-c4ccncc4)cc3)cn(C)c2c1 :: 10.8

(A) Cn1cc(-c2ccc(Oc3nccnc3-c3cncnc3)cc2)c2nc3ccccc3cc21
(B) Cn1cc(-c2cccc(Oc3nccc(N4CCOCC4)n3)c2)c2nc3ccccc3cc21
Param pair: A , B . Output: the one whose inhibition is numerically greater. Bench note: the answer is the label of the chosen record.
A

###

- testDescription: Metabolic stability in human liver microsomes incubated for 10 mins prior to NADPH addition measured after 60 mins by LC/MS/MS analysis
- Type: ADME
- conditions: read-out: Stability
measurementName: remaining at 1 h (%)

Cn1cc(-c2cccc(Oc3nccc(-c4cn[nH]c4)n3)c2)c2nc3ccccc3cc21 :: 75.4
Cn1cc(-c2ccc(Oc3nccnc3-c3cncnc3)cc2)c2nc3ccccc3cc21 :: 85.2

(P) Cn1cc(-c2ccc(Oc3nccnc3-c3ccncc3)cc2)c2nc3ccccc3cc21
(Q) Cn1cc(C2=CCC(Oc3nccnc3-c3cncnc3)CC2)c2ncccc21 (centres undefined)
Which of the two gives a bigger number for remaining at 1 h: P or Q ? Your answer should be the label attached to the chosen record.
P
(P: 96%, Q: 12.2%)

###

- targetDesc: cAMP and cAMP-inhibited cGMP 3',5'-cyclic phosphodiesterase 10A (Homo sapiens)
- Sequence (Q9Y233 whole entry): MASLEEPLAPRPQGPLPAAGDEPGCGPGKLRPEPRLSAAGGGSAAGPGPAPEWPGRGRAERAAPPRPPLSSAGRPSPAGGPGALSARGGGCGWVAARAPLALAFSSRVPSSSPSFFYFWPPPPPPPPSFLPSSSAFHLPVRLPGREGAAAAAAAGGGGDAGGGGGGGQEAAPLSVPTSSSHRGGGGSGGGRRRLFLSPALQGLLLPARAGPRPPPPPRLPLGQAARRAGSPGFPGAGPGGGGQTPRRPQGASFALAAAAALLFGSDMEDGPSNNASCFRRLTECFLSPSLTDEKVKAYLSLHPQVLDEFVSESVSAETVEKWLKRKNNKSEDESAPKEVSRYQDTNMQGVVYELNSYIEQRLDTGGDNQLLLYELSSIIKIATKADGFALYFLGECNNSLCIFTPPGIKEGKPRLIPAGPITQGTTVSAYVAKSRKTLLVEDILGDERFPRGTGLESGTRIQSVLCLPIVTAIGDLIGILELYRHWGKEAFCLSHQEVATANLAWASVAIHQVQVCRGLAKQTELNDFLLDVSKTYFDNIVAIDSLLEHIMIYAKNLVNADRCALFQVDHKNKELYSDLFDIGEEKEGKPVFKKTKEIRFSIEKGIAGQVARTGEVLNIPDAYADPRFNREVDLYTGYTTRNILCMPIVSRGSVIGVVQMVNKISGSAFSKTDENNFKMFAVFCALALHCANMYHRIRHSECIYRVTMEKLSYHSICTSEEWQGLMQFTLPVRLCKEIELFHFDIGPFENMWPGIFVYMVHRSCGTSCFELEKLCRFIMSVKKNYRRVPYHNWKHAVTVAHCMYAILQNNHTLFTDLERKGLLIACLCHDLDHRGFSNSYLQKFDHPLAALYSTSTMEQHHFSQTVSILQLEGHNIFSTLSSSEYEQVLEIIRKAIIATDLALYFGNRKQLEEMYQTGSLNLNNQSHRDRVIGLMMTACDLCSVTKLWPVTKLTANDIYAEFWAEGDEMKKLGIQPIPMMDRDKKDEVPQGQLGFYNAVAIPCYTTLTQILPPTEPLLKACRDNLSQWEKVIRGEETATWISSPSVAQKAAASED
- testDescription: Inhibition of human recombinant GST-tagged PDE10A using [3H]-cAMP as substrate after 30 mins by scintillation proximity assay
pIC50: −log10 of the molar value.
measurementName: pIC50

Cn1cc(-c2cccc(Oc3nccc(-c4cn[nH]c4)n3)c2)c2nc3ccccc3cc21 :: 7.68

(I) Cn1cc(-c2ccc(Oc3nccc(-c4cncnc4)n3)cc2)c2nc3ccccc3cc21
(II) Cn1cc(-c2ccc(Oc3ncccc3-c3ccncc3)cc2)c2ncc(Cl)cc21
Compare pIC50: is it lower for I or for II ? Pick one; state its label.
I
(I: 6.89, II: 8.59)

###

- targetDesc: cGMP-dependent 3',5'-cyclic phosphodiesterase (Homo sapiens) (UniProt O00408)
- Sequence (O00408 whole entry): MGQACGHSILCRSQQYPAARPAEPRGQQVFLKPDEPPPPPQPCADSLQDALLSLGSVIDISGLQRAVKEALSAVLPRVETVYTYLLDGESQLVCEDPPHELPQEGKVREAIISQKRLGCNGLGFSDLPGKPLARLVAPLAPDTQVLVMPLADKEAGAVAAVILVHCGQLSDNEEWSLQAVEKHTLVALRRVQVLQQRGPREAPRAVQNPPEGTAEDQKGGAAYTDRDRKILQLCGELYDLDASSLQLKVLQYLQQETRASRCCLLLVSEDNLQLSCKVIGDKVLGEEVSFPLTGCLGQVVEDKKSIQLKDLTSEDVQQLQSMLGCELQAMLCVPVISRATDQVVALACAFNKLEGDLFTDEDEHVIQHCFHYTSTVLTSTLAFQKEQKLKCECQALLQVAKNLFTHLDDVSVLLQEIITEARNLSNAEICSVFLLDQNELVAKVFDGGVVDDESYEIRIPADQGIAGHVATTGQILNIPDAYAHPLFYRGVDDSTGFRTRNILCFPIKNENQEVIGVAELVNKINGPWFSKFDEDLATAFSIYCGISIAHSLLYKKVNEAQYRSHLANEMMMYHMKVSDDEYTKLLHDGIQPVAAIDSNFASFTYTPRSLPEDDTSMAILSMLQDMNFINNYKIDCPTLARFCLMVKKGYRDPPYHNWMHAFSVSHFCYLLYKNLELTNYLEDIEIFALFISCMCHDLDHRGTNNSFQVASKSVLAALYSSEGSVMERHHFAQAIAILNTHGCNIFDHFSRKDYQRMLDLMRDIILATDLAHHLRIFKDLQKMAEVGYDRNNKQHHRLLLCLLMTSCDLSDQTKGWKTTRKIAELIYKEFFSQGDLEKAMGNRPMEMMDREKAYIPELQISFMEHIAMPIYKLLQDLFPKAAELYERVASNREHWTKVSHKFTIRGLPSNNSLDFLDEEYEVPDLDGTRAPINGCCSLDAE
- testDescription: Inhibition of human recombinant PDE2A using cAMP as substrate at 1 uM after 30 mins by HTRF method
measurementName: inhibition (%)

Cn1cc(-c2ccc(Oc3ncccc3-c3ccncc3)cc2)c2ncc(Cl)cc21 :: 12.3
Cn1cc(-c2ccc(Oc3nccnc3-c3ccncc3)cc2)c2ncc(Cl)cc21 :: 11.3
Cn1cc(-c2cccc(Oc3nccc(N4CCOCC4)n3)c2)c2nc3ccccc3cc21 :: 15.7
